Value source: PubChem BioAssay (NCATS)

Experiment: Cellular Toxicity (caspase-3) Renal Proximal Tubule (AID 667);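 further: cells exposed to compound for 16 hours at 37 °C before detection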;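 on caspase-3 activation: 0% = DMSO basal and 100% = 10 µM staurosporine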
Conditions: renal proximal tubule cells, primary cells freshly taken from rat; caspase-3 activation; series mostly up to 91.7 µM
Active and inactive are the calls of the source. The call rests on the fitted dose curve; in most records, active means well fitted activation curve with a large enough effect; inconclusive means small, poorly fitted or top-dose-only effect, or effect the other way; inactive means flat fitted curve, though single readings scatter.
// allowed return values: y for active, n for inactive

Tell me the recorded outcome of this test for CC(C)COC(=O)COc1cc(Cl)c(Cl)cc1Cl .
n

Tell me the recorded outcome of this test for O=C(O)/C=C/c1ccc(/C=C/C(=O)O)cc1 .
n

Tell me the recorded outcome of this test for O=[N+]([O-])c1ccccc1Nc1ccccc1 .
n

Tell me the recorded outcome of this test for N=C1C=CC(=C(c2ccc(N)cc2)c2ccc(N)cc2)C=C1 .
n

Tell me the recorded outcome of this test for C=CC1CO1 (configuration not stated) .
n

Tell me the recorded outcome of this test for Cc1c(C(=O)O)c(O)cc2c1C(=O)c1c(O)c([C@H]3O[C@H](CO)[C@@H](O)[C@H](O)[C@H]3O)c(O)c(O)c1C2=O .
n

Tell me the recorded outcome of this test for c1ccc2ncccc2c1 .
n

Tell me the recorded outcome of this test for CC(=O)OC1CC(C)OC(C)O1 (configuration not stated) .
n

Tell me the recorded outcome of this test for CC(=O)OC(C(=O)c1ccccc1)c1ccccc1 (configuration not stated) .
n

Tell me the recorded outcome of this test for Cc1cc(-c2ccc(N=Nc3cc(S(=O)(=O)O)c4ccccc4c3N)c(C)c2)ccc1N=Nc1cc(S(=O)(=O)O)c2ccccc2c1N .
n

Tell me the recorded outcome of this test for CC1=C(/C=C/C(C)=C/C=C/C(C)=C/C=O)C(C)(C)CCC1 .
y

Tell me the recorded outcome of this test for C/C=C/C=C/C=O .
n

---

Test: AP1 Signaling Pathway (AID 357);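 further: ME-180 reporter cells stimulated with EGF at its EC50 level; on the % scale 0 is the no-effect control and ±100 the full control effect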
Details: ME-180 (cervical carcinoma) AP-1-bla reporter, EGF-induced, beta-lactamase ratio, 5 h; at 7.69 µM (top of the series) unless noted
Records with an inconclusive call do not appear. Calls of active or inactive are those of the source. The call rests on the fitted dose curve; in most records, active means well fitted curve in either direction with a large enough effect (not every such curve was filed as active); inconclusive means small, poorly fitted or top-dose-only effect, or another doubt; inactive means flat fitted curve, though single readings scatter.
I'd appreciate it if you could supply activity change, negative = inhibition values for the items below.

Form field: reported activity change, negative = inhibition of O=S(=O)(O)c1cc(O)c2c(N=Cc3ccccc3O)cc(S(=O)(=O)O)cc2c1
-14.5% (inactive)

Form field: reported activity change, negative = inhibition of Cn1cnc([N+](=O)[O-])c1Sc1nc(N)nc2c1ncn2Cc1ccccc1
0.181% (inactive)

Form field: reported activity change, negative = inhibition of COc1ccc2c3c([nH]c2c1)[C@H]1C[C@@H]2[C@@H](C[C@@H](O)[C@H](OC)[C@H]2C(=O)O)CN1CC3
-5.49% (inactive)

Form field: reported activity change, negative = inhibition of O=C1c2ccccc2-c2ccc(N=[N+]([O-])c3ccc4c(c3)C(=O)c3ccccc3-4)cc21
5.38% (inactive)

Form field: reported activity change, negative = inhibition of CN1CCc2nc(N)nc(-c3nc(N)nc4c3CN(C)CC4)c2C1
1.73% (inactive)

Form field: reported activity change, negative = inhibition of N[C@@H](Cc1ccccc1)C(=O)O
3.61% (inactive)

Form field: reported activity change, negative = inhibition of Cc1cc(Cl)nc2ccc(Cc3ccc4nc(Cl)cc(C)c4c3)cc12
-7.81% (inactive)

Form field: reported activity change, negative = inhibition of CC[C@H]1CN(C)[C@H]2Cc3c([nH]c4ccccc34)C(=O)C[C@H]1[C@H]2C(=O)OC
-2.14% (inactive)

Form field: reported activity change, negative = inhibition of O=[N+]([O-])c1ccc([C@@H](Nc2ccccc2)c2ccc3cccnc3c2O)cc1
-13.7% (inactive)

Form field: reported activity change, negative = inhibition of Cc1[nH]c(C)c(CN(C)C)c1CN(C)C
-2.51% (inactive)

Form field: reported activity change, negative = inhibition of CC(CCN)(CCN)[N+](=O)[O-]
10.4% (inactive)

Form field: reported activity change, negative = inhibition of OCCSCc1ccccc1
2.72% (inactive)

Form field: reported activity change, negative = inhibition of CCCCNc1nc(SC)nc2nc[nH]c12
1.1% (inactive)

Form field: reported activity change, negative = inhibition of CO[C@@H]1/C=C\O[C@]2(C)Oc3c(C)c(O)c4c(O)c(c(CN(C)C)c(O)c4c3C2=O)NC(=O)/C(C)=C\C=C[C@@H](C)[C@@H](O)[C@H](C)[C@@H](O)[C@H](C)[C@H](OC(C)=O)[C@@H]1C
-3.25% (inactive)

Form field: reported activity change, negative = inhibition of NS(=O)(=O)c1nc(S(=O)(=O)O)c2[nH]cnc2n1
7.59% (inactive)

Form field: reported activity change, negative = inhibition of CS(=O)(=O)Nc1ccc(Nc2c3ccccc3nc3ccccc23)cc1
0.883% (inactive)

Form field: reported activity change, negative = inhibition of OC[C@@H]1O[C@@H](O)[C@H](N=Cc2ccc3c(c2)OCO3)[C@@H](O)[C@@H]1O
5.99% (inactive)

Form field: reported activity change, negative = inhibition of COc1nc(N)nc2c1ncn2[C@@H]1C[C@H](O)[C@@H](CO)O1
5.07% (inactive)

Form field: reported activity change, negative = inhibition of N[C@H](Cc1ccc(O)c(I)c1)C(=O)O
6.16% [at 38 µM] (inactive)

Form field: reported activity change, negative = inhibition of S=C(Nc1ccc2cn[nH]c2c1)Nc1ccc2cn[nH]c2c1
-15% (inactive)

Form field: reported activity change, negative = inhibition of N[C@H](CCCC(=O)O)C(=O)O
3.41% [at 38 µM] (inactive)
